Overview of reported growth inhibition across a group of compounds:
# PROTOCOL_DETAILS: NCI Yeast Anticancer Drug Screen. Data for the CLN2oe strain (AID 163);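 also: 0% = growth of vehicle-only control cultures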
# CONDITION_SUMMARY: S. cerevisiae CLN2oe strain, at 1.2 µM, hits give high values
The panel holds about 79,000 compounds, 15% with a hit somewhere; the sample as a whole holds those more often.
# output: bare number, implied unit %

Solved cases (2 shown):
CN(C)CCSC1=Nc2ccc(Cl)cc2C(c2ccccc2Cl)=NC1 = -1
O=S(=O)(O)c1ccc(Cl)cc1.[Cd] = -18

Q: Suppose we examine the compound CCCCCNC(=O)c1c(O)[nH]c(=S)[nH]c1=O ; what growth inhibition value has been reported?
A: 4

Q: Suppose we examine the compound O=C1C2CC(Cl)C(SSC3CC4C(=O)N(SC(Cl)(Cl)C(Cl)Cl)C(=O)C4CC3Cl)CC2C(=O)N1SC(Cl)(Cl)C(Cl)Cl (centres undefined) ; what growth inhibition value has been reported?
A: 40

====

Overview of reported growth inhibition across a group of compounds:
# PROTOCOL_DETAILS: NCI Yeast Anticancer Drug Screen. Data for the rad18 strain (AID 177)
# CONDITION_SUMMARY: S. cerevisiae rad18 mutant growth inhibition; at 3.7 µM; hits give high values
This is part of a sample that, as a whole, favours compounds with a hit. Of some 79,000 tested, about 15% had one in any assay. The source made the active and inactive calls. Cut-off read from the data, not from the text of the source: active = growth inhibition above about 70%; inactive = the rest.

Solved cases (3 shown):
COc1cc2ccccc2c2cc([N+](=O)[O-])oc12 = 96% (active)
C[N+](C)(C)CC1CCCC(C[N+](C)(C)C)C1=O (configuration not stated) = 13% (inactive)
CSc1ccccc1[As](C)C = 43% (inactive)

Q: Suppose we examine the compound CC1CN1C1=C(Cl)C(=O)C(N2CC2C)=C(Cl)C1=O (configuration not stated) ; what growth inhibition value has been reported?
A: 96% (active)

Q: Suppose we examine the compound Cc1c([N+](=O)[O-])oc2ccc3ccccc3c12 ; what growth inhibition value has been reported?
A: 96% (active)

Q: Suppose we examine the compound Cc1ccc2nc3sc(=O)sc3nc2c1 ; what growth inhibition value has been reported?
A: 56% (inactive)

Q: Suppose we examine the compound O=C(NNC(=O)OCC(Cl)(Cl)Cl)OCC(Cl)(Cl)Cl ; what growth inhibition value has been reported?
A: 0% (inactive)

====

# PROTOCOL_DETAILS: NCI Yeast Anticancer Drug Screen. Data for the sgs1 strain (AID 173);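 also: 0% = growth of vehicle-only control cultures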
# CONDITION_SUMMARY: S. cerevisiae sgs1 mutant, at 3.7 µM
# Method: Growth inhibition of yeast strains with defined genetic alterations is measured as a screen for potential anti-cancer activity. Selected strains with alterations in DNA damage repair or cell cycle control were exposed to compounds and growth inhibition was measured relative to vehicle treated controls. The strain used in this assay is sgs1
This is part of a sample that, as a whole, favours compounds with a hit. Of some 79,000 tested, about 15% had one in any assay. Calls of active or inactive are those of the source. No stated cut-off is given here; in the data, active means growth inhibition above about 70%; inactive means the rest.
Entry note: the call must match one of yes (1) for active, no (0) for inactive

Q: What classification did COc1cc(O)c2c(O)c3c(c4c2c1[C@]1(C4)C(C)=CCCC1(C)C)[C@H](O)[C@@]1(O)CC(=O)C(C(N)=O)=C(O)[C@@]1(O)C3=O end up with in this test?
A: yes (1)

Q: What classification did C/C(=N\N=C(N)N)C(CN1CCOCC1)C(c1ccccc1)c1c(O)c2ccccc2oc1=O (stereo unspecified) end up with in this test?
A: no (0)

Q: What classification did [O-][n+]1c2cccc(O)c2[n+]([O-])c2cccc(O)c21 end up with in this test?
A: no (0)

Q: What classification did O=C1C2CC(Cl)C(SSC3CC4C(=O)N(SC(Cl)(Cl)C(Cl)Cl)C(=O)C4CC3Cl)CC2C(=O)N1SC(Cl)(Cl)C(Cl)Cl (stereo unspecified) end up with in this test?
A: yes (1)

Q: What classification did CCC(=O)OC1CCn2c1nc1c2C(=O)C(C)=C(N2CC2)C1=O (stereo unspecified) end up with in this test?
A: no (0)

Q: What classification did Cc1c(N)nc([C@H](CC(N)=O)NC[C@H](N)C(N)=O)nc1C(=O)N[C@H](C(=O)N[C@H](C)[C@@H](O)[C@H](C)C(=O)N[C@H](C(=O)NCCc1nc(-c2nc(C(=O)NCCC[S+](C)C)cs2)cs1)[C@@H](C)O)C(OC1OC(CO)C(O)C(O)C1OC1OC(CO)C(O)C(OC(N)=O)C1O)c1cnc[nH]1 (stereo partly specified) end up with in this test?
A: no (0)

====

Overview of reported growth inhibition across a group of compounds:
# PROTOCOL_DETAILS: NCI Yeast Anticancer Drug Screen. Data for the rad18 strain (AID 177)
# CONDITION_SUMMARY: S. cerevisiae rad18 mutant growth inhibition; at 11.0 µM; hits give high values
About 79,000 compounds went through this panel and 15% of them were active in at least one assay; those are over-represented in the sample as a whole. The source made the active and inactive calls. No stated cut-off is given here; in the data, active means growth inhibition above about 70%; inactive means the rest.

CC[C@]1(O)CC(OC2CC(N(C)C)C(O)C(C)O2)c2c(cc3c(c2O)C(=O)c2c(O)cccc2C3=O)[C@@H]1C(=O)OC (some centres undefined) = 2% (inactive)
NCCc1ccc(OCc2ccccc2)c(OCc2ccccc2)c1 = 45% (inactive)
C[C@]12CCC3[C@@H](CC[C@@H]4c5nonc5CC[C@]34C)C1CCC2=O (some centres undefined) = 50% (inactive)

Let's switch to this compound now.
Q: Suppose we examine the compound O=C1NC(=S)NC(=O)C1=Cc1ccc([N+](=O)[O-])o1 ; what growth inhibition value has been reported?
A: 57% (inactive)

====

# PROTOCOL_DETAILS: NCI Yeast Anticancer Drug Screen. Data for the rad14 strain (AID 159);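 also: 0% = growth of vehicle-treated control cultures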
# CONDITION_SUMMARY: S. cerevisiae rad14 strain growth inhibition; at 33.0 µM; hits give high values
The panel holds about 79,000 compounds, 15% with a hit somewhere; the sample as a whole holds those more often.
So basically: growth inhibition at 50% or higher? That is MET. Lower than 50%? That is NOT MET.

Please review the following examples before continuing.
COc1ccc(OC)c(/C=C/[N+](=O)[O-])c1 = NOT MET
O=C(COc1ccc(Cl)cc1Cl)NO = NOT MET

Q: Determine whether measured growth inhibition meets or exceeds 50% for CC(C)(C)c1cc([N+](=O)[O-])cc([N+](=O)[O-])c1O
A: NOT MET

Q: Determine whether measured growth inhibition meets or exceeds 50% for O=C1NC(=S)NC(=O)C1=Cc1ccc([N+](=O)[O-])o1
A: NOT MET

Q: Determine whether measured growth inhibition meets or exceeds 50% for C[N+](CCCl)(CCCl)Cc1cccc2cccc([N+](=O)[O-])c12
A: MET

Q: Determine whether measured growth inhibition meets or exceeds 50% for c1c(N2CCOCC2)ssc1=[N+]1CCOCC1
A: NOT MET

Q: Determine whether measured growth inhibition meets or exceeds 50% for Nc1nc(N)c2c(Cl)c(CNc3ccc(C(=O)NC(CC(=O)O)C(=O)O)cc3)ccc2n1 (stereo not given)
A: NOT MET

Q: Determine whether measured growth inhibition meets or exceeds 50% for CCOC(=O)C1C2c3ccccc3C(c3ccccc32)C1C(=O)OCC (stereo not given)
A: NOT MET

Q: Determine whether measured growth inhibition meets or exceeds 50% for CCCN(CCC)c1c([N+](=O)[O-])cc(S(N)(=O)=O)cc1[N+](=O)[O-]
A: NOT MET

Q: Determine whether measured growth inhibition meets or exceeds 50% for CNC(=O)OCC1C2=C(C(=O)C(C)=C(N)C2=O)N2CC3C(N3C)C12OC (stereo not given)
A: NOT MET

Q: Determine whether measured growth inhibition meets or exceeds 50% for Cc1c(N)nc([C@H](CC(N)=O)NC[C@H](N)C(N)=O)nc1C(=O)N[C@H](C(=O)N[C@H](C)[C@@H](O)[C@H](C)C(=O)N[C@H](C(=O)NCCc1nc(-c2nc(C(=O)NCCC[S+](C)C)cs2)cs1)[C@@H](C)O)C(OC1OC(CO)C(O)C(O)C1OC1OC(CO)C(O)C(OC(N)=O)C1O)c1cnc[nH]1 (stereo not given in full)
A: MET

====

# PROTOCOL_DETAILS: NCI Yeast Anticancer Drug Screen. Data for the rad18 strain (AID 177)
# CONDITION_SUMMARY: S. cerevisiae rad18 mutant growth inhibition; at 1.2 µM; hits give high values
The panel holds about 79,000 compounds, 15% with a hit somewhere; the sample as a whole holds those more often.
Overview of reported growth inhibition across a group of molecules:
# output: bare number, implied unit %

Cc1c([N+](=O)[O-])oc2ccc3ccccc3c12 = 95

Q: Suppose we examine the molecule c1ccc2cc3n[se]nc3cc2c1 ; what growth inhibition value has been reported?
A: 4

Q: Suppose we examine the molecule CC(C)(C)c1cc([N+](=O)[O-])cc([N+](=O)[O-])c1O ; what growth inhibition value has been reported?
A: -30

Q: Suppose we examine the molecule CCS(=O)(=O)[O][Sn]([CH2]C)([CH2]C)[O]S(=O)(=O)CC ; what growth inhibition value has been reported?
A: -29

Q: Suppose we examine the molecule C[C@]12CCC3[C@@H](CC[C@@H]4c5nonc5CC[C@]34C)C1CCC2=O (stereo partly drawn) ; what growth inhibition value has been reported?
A: 24

Q: Suppose we examine the molecule CC[PH+](CC)CC.CC[PH+](CC)CC.[Au] ; what growth inhibition value has been reported?
A: 12

Q: Suppose we examine the molecule O=C(O)C1C2C=CC(C2)C1c1ccccc1 (stereo not drawn) ; what growth inhibition value has been reported?
A: -1

Q: Suppose we examine the molecule C[C@]12CCc3nonc3C1CC[C@@H]1C2CC[C@]2(C)C(=O)CCC12 (stereo partly drawn) ; what growth inhibition value has been reported?
A: 14

// data source = PubChem BioAssay (NCI)
